- System: MRP1 cells, doxorubicin viability shift, 10 uM compound
- protocol.text: viability protection against doxorubicin, MRP-1 line – cell-based, doxorubicin EC50 shift, dose response (AID 844)
Reported fold increase in Dox EC50 values follow for various compounds
Output spec: single numeric token, no unit.

# compound, fold increase in Dox EC50
rows = [
    ("COc1cccc(/C=N\\NC(=O)C2=NNC(=O)C2C)c1O (centres undefined)", 1.2),
    ("Cc1nnc(NC(=O)C(C)Sc2nncn2C)s1 (centres undefined)", 0.77),
    ("O=C(/C=C/c1ccc([N+](=O)[O-])cc1)N1CCN(c2ccccc2F)CC1", 0.56),
    ("Cc1ccc(Cl)cc1N1CCN(C(=O)Cc2ccc(-n3c(=O)[nH]c4ccsc4c3=O)cc2)CC1", 0.78),
    ("Cc1ccc2nc3c(cc2c1)CC1(C(=O)N(C)C(=O)N(C)C1=O)C1CCCCN31 (centres undefined)", 0.59),
    ("COc1ccccc1NS(=O)(=O)c1cc(NC(=O)/C=C/c2cccs2)ccc1N1CCOCC1", 0.81),
]

COc1ccc(OC)c(-c2cc(C(=O)Nc3c(C)nn(Cc4ccccc4Cl)c3C)no2)c1 yielded fold increase in Dox EC50 of 0.55

// fold increase in Dox EC50 value for Cc1nc(OCc2ccccc2)c2sc3nc4c(cc3c2n1)COC(C)(C)C4 : 1.3

Entry N#C/C(=N/Nc1ccccc1F)C(=N)N1CCOCC1 , fold increase in Dox EC50 reported as 0.99

Just for reference, PubChem BioAssay AID844 is where these values come from.
